Reported values of Corn plant response rating for individual entries
- Test system: corn
- MEASUREMENT_DESCRIPTION: Test B pre/postemergence corn
- Type: in vivo, Zea mays
- CONDITION_CONTEXT: Rate 125 g/ha, Postemergence; scale 0 to 10
- Experimental: […] At the same time, these crop and weed species were also treated with postemergence applications of test chemicals formulated in the same manner. […] Treated plants and controls were maintained in a greenhouse for twelve to sixteen days, after which all species were compared to controls and visually evaluated. […]

COMPOUND | Corn plant response rating
CC(C)N(C(=O)n1oc(=O)n(C2CC2)c1=O)c1ccccc1 | 2
CCC(C)N(C(=O)n1oc(=O)n(-c2ccccc2C)c1=O)c1ccc(F)cc1 (centres unmarked) | 0
Cc1ccccc1-n1c(=O)on(C(=O)N(c2ccc(-c3ccccc3)cc2)C(C)C)c1=O | 0
COCCOCn1c(=O)on(C(=O)N(c2ccc(F)cc2)C(C)C)c1=O | 0
Cc1ccccc1-n1c(=O)on(C(=O)N(c2ccc(S(C)(=O)=O)cc2)C(C)C)c1=O | 0

###

- System: crabgrass
- MEASUREMENT_DESCRIPTION: Test B pre/postemergence crabgrass
- Format: in vivo, Digitaria sanguinalis
- CONDITION_CONTEXT: Postemergence, Rate 250 g/ha; scale 0 to 10, 0 is no effect, 10 is complete control

SAMPLE_SMILES | Plant response rating, Crabgrass
CC(C)N(C(=O)n1oc(=O)n(C)c1=O)c1ccccc1 | 9
C=CC[Si](C)(C)Cn1c(=O)on(C(=O)N(c2ccc(Cl)cc2)C(C)C)c1=O | 6
CC(C)N(C(=O)n1oc(=O)n(CCCC(F)(F)F)c1=O)c1ccc(F)cc1 | 9
CC(C)N(C(=O)n1oc(=O)n(CCl)c1=O)c1ccc(Cl)cc1 | 0

###

- System: sugar beet
- MEASUREMENT_DESCRIPTION: Test B pre/postemergence sugar beet
- Assay type: in vivo, Beta vulgaris
- CONDITION_CONTEXT: Rate 500 g/ha, Postemergence; scale 0 to 10, 0 no effect, 10 complete control
Reported values of Sugarbeets plant response rating for individual entries

COMPOUND | TARGET_ENTITY | Sugarbeets plant response rating
CCn1c(=O)on(C(=O)N(c2ccc(F)cc2F)C(C)C)c1=O | sugar beet | 8
CCn1c(=O)on(C(=O)N(c2ccc(F)cc2)C(C)C)c1=O | sugar beet | 7
CCC(C)N(C(=O)n1oc(=O)n(-c2ccccc2C)c1=O)c1ccc(F)cc1 (stereo not shown) | sugar beet | 0
Cc1cc(C)c(-n2c(=O)on(C(=O)N(c3ccc(F)cc3)C(C)C)c2=O)c(Br)c1 | sugar beet | 4

###

- Tested on: purple nutsedge
- MEASUREMENT_DESCRIPTION: Test B pre/postemergence purple nutsedge
- Format: in vivo, Cyperus rotundus
- CONDITION_CONTEXT: Preemergence, Rate 500 g/ha; scale of 0 to 10 where 0 is no effect and 10 is complete control

COMPOUND | Nutsedge plant response rating
CC(C)N(C(=O)n1oc(=O)n(C(C)Cl)c1=O)c1ccc(F)cc1 (stereo not shown) | 0
CC(C)N(C(=O)n1oc(=O)n(C2CCCCCC2)c1=O)c1ccccc1 | 0
C=C(Cn1c(=O)on(C(=O)N(c2ccccc2)C(C)C)c1=O)c1cccnc1 | 0
CC(C)N(C(=O)n1oc(=O)[nH]c1=O)c1ccc(F)cc1F | 0
CC(C)Cn1c(=O)on(C(=O)N(c2ccc(F)cc2F)C(C)C)c1=O | 6
CC(C)N(C(=O)n1oc(=O)n(-c2ccc3ccccc3c2)c1=O)c1ccccc1 | 0
Cc1noc(C)c1Cn1c(=O)on(C(=O)N(c2ccc(Cl)cc2)C(C)C)c1=O | 0

###

- System: pigweed
- MEASUREMENT_DESCRIPTION: Test B pre/postemergence pigweed
- Type: in vivo, Amaranthus retroflexus
- CONDITION_CONTEXT: Postemergence, Rate 125 g/ha; scale of 0 to 10 where 0 is no effect and 10 is complete control
ATTRIBUTE_MEASURED: Redroot pigweed plant response rating

MOLECULE | TARGET_ENTITY | RECORDED_RESULT
CC(C)N(C(=O)n1oc(=O)n(CC(F)F)c1=O)c1ccccc1 | pigweed | 5
CC1CCCCC1n1c(=O)on(C(=O)N(c2ccc(F)cc2)C(C)C)c1=O (stereo not shown) | pigweed | 0
COC(=O)N(C)CCn1c(=O)on(C(=O)N(c2ccccc2)C(C)C)c1=O | pigweed | 3
CC(C)N(C(=O)n1oc(=O)n(-c2cnn(C)c2)c1=O)c1ccc(F)cc1 | pigweed | 0

###

- Test system: surinam grass
- MEASUREMENT_DESCRIPTION: Test B pre/postemergence surinam grass
- Type: in vivo, Brachiaria decumbens
- CONDITION_CONTEXT: Preemergence, Rate 62 g/ha; scale 0 to 10 (0 no effect, 10 complete control)
ATTRIBUTE_MEASURED: B. signalgrass plant response rating

COMPOUND | RECORDED_RESULT
C=C(C)Cn1c(=O)on(C(=O)N(c2ccc(F)cc2)C(C)C)c1=O | 0
CCOC(=O)CC(C(=O)OCC)n1c(=O)on(C(=O)N(c2ccccc2)C(C)C)c1=O (stereo not shown) | 0
Cc1ccccc1Cn1c(=O)on(C(=O)N(c2ccc(Cl)cc2)C(C)C)c1=O | 3
CC(C)=CCn1c(=O)on(C(=O)N(c2ccccc2)C(C)C)c1=O | 4
CCc1noc(C)c1-n1c(=O)on(C(=O)N(c2ccc(F)cc2)C(C)C)c1=O | 0
CC(C)N(C(=O)n1oc(=O)n(CCCl)c1=O)c1ccc(F)cc1 | 0
CC(C)N(C(=O)n1oc(=O)n(-c2cnn(C)c2)c1=O)c1ccc(F)cc1 | 0
Cc1noc(C)c1Cn1c(=O)on(C(=O)N(c2ccc(Cl)cc2)C(C)C)c1=O | 0
CCOC(=O)Cn1c(=O)on(C(=O)N(c2ccc(F)cc2)C(C)C)c1=O | 0
CC(C)N(C(=O)n1oc(=O)n(-c2cnn(C)c2Cl)c1=O)c1ccccc1 | 0

###

- Tested on: sugar beet
- MEASUREMENT_DESCRIPTION: Test B pre/postemergence sugar beet
- Type: in vivo, Beta vulgaris
- CONDITION_CONTEXT: Preemergence, Rate 500 g/ha; scale 0 to 10 (0 no effect, 10 complete control)

SAMPLE_SMILES | Sugarbeets plant response rating
CC(C)N(C(=O)n1oc(=O)n(CCCl)c1=O)c1ccc(F)cc1 | 10
Cc1ccccc1Cn1c(=O)on(C(=O)N(c2ccc(Cl)cc2)C(C)C)c1=O | 9
CC(C)N(C(=O)n1oc(=O)n(-c2nc(Cl)sc2Cl)c1=O)c1ccc(F)cc1 | 0
CC(C)N(C(=O)n1oc(=O)n([C@H](C)c2ccccc2)c1=O)c1ccc(Cl)cc1 | 0

###

Reported values of Plant response rating, Soybean for individual entries
- Test system: soybean
- MEASUREMENT_DESCRIPTION: Test B pre/postemergence soybean
- Format: in vivo, Glycine max
- CONDITION_CONTEXT: Preemergence, Rate 125 g/ha; scale of 0 to 10 where 0 is no effect and 10 is complete control

COMPOUND | Plant response rating, Soybean
COC(CCl)n1c(=O)on(C(=O)N(c2ccccc2)C(C)C)c1=O (centres unmarked) [Compound 735] | 0
CC(C)N(C(=O)n1oc(=O)n(C(C)CCl)c1=O)c1ccccc1 (centres unmarked) [Compound 411] | 0
CC(C)N(C(=O)n1oc(=O)n(CC#N)c1=O)c1ccc(F)cc1F [Compound 431] | 0
CC(C)N(C(=O)n1oc(=O)n(C(C)CCl)c1=O)c1ccc(Cl)cc1 (centres unmarked) [Compound 456] | 0
CC(C)N(C(=O)n1oc(=O)n(C(C)C2=NOCC2)c1=O)c1ccc(F)cc1F (racemic) [Compound 730] | 0
Cc1nc(C)c(C(C)n2c(=O)on(C(=O)N(c3ccc(F)cc3F)C(C)C)c2=O)s1 (centres unmarked) [Compound 443] | 0
CC(C)N(C(=O)n1oc(=O)n(CC(F)F)c1=O)c1ccccc1 [Compound 746] | 0
CC(C)N(C(=O)n1oc(=O)n(CCl)c1=O)c1ccc(Cl)cc1 [Compound 422] | 0

###

Reported values of Plant response rating, Blackgrass for individual entries
- System: blackgrass
- MEASUREMENT_DESCRIPTION: Test B pre/postemergence blackgrass
- Format: in vivo, Alopecurus myosuroides
- CONDITION_CONTEXT: Postemergence, Rate 62 g/ha; scale 0 to 10, 0 is no effect, 10 is complete control
- Protocol: […] At the same time, these crop and weed species were also treated with postemergence applications of test chemicals formulated in the same manner. […] Treated plants and controls were maintained in a greenhouse for twelve to sixteen days, after which all species were compared to controls and visually evaluated. […]
ATTRIBUTE_MEASURED: Plant response rating, Blackgrass

COMPOUND | TARGET_ENTITY | RECORDED_RESULT
CC(C)N(C(=O)n1oc(=O)n(CC(F)F)c1=O)c1ccc(F)cc1F [Compound 711] | blackgrass | 3
CC(C)N(C(=O)n1oc(=O)n(CC(=O)C2CCC2)c1=O)c1ccc(Cl)cc1 [Compound 643] | blackgrass | 0
CC(=O)NCn1c(=O)on(C(=O)N(c2ccc(F)cc2F)C(C)C)c1=O [Compound 622] | blackgrass | 0
CCCCCn1c(=O)on(C(=O)N(c2ccc(F)cc2F)C(C)C)c1=O [Compound 636] | blackgrass | 0
